System: Escherichia coli TOP10
Assay: shrunken log2 fold change of peptide-encoding DNA abundance (4.5 h post-induction vs induction); higher = less antimicrobial activity (less host growth inhibition)
Conditions: time post-induction: 4.5 h; library: site-saturation at positions 5, 18, 19, 20
readout type: shrunken log2 fold change
Answers are plain numbers.

RRIRQRPPRLPRPRPRPWAKPRP ... -0.000896
RRIRFRPPRLPRPRPRPPMEPRP ... -0.0751
RRIRDRPPRLPRPRPRPEAFPRP ... 0.119

Count: 8. Required value per item: shrunken log2 fold change.
1. RRIRCRPPRLPRPRPRPFRVPRP
2. RRIRARPPRLPRPRPRPNQHPRP
3. RRIRARPPRLPRPRPRPDPCPRP
4. RRIRCRPPRLPRPRPRPSCSPRP
5. RRIRDRPPRLPRPRPRPDGYPRP
6. RRIRYRPPRLPRPRPRPYSKPRP
7. RRIRTRPPRLPRPRPRPEQRPRP
8. RRIRHRPPRLPRPRPRPDWQPRP

Result ::
1. -0.32
2. -0.124
3. 0.428
4. -0.482
5. -0.0204
6. -0.124
7. -0.000852
8. 0.00196

Count: 7. Required value per item: shrunken log2 fold change.
1. RRIRLRPPRLPRPRPRPNPEPRP
2. RRIRYRPPRLPRPRPRPNSGPRP
3. RRIRKRPPRLPRPRPRPQHDPRP
4. RRIRWRPPRLPRPRPRPFDSPRP
5. RRIRRRPPRLPRPRPRPPKHPRP
6. RRIRHRPPRLPRPRPRPDMAPRP
7. RRIRGRPPRLPRPRPRPCLRPRP

Result ::
[0.0435, -0.01, 0.202, -0.124, 0.39, -0.0459, 0.459]

###

What shrunken log2 fold change was measured for each of the following?
Test system: Escherichia coli TOP10;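 note: peptides expressed intracellularly from a pBAD plasmid library in pooled LB shake-flask culture, induced with 0.3% L-arabinose, DNA abundance read by NGS, three biological replicates, DESeq2 with apeglm shrinkage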
Experiment: shrunken log2 fold change of peptide-encoding DNA abundance (4.5 h post-induction vs induction); higher = less antimicrobial activity (less host growth inhibition)
Details: time post-induction: 4.5 h; library: site-saturation at positions 5, 18, 19, 20
Answers are plain numbers.

RRIRFRPPRLPRPRPRPDDHPRP ... -0.139
RRIRNRPPRLPRPRPRPESLPRP ... 0.0505

Count: 5. Required value per item: shrunken log2 fold change.
1. RRIRWRPPRLPRPRPRPTGKPRP
2. RRIRTRPPRLPRPRPRPRGIPRP
3. RRIRVRPPRLPRPRPRPHVPPRP
4. RRIRERPPRLPRPRPRPARSPRP
5. RRIRIRPPRLPRPRPRPQCYPRP

Result ::
1: 0.294; 2: -0.0284; 3: -0.044; 4: 0.0919; 5: -0.0646

Count: 7. Required value per item: shrunken log2 fold change.
1. RRIRYRPPRLPRPRPRPIDPPRP
2. RRIRNRPPRLPRPRPRPFTTPRP
3. RRIRSRPPRLPRPRPRPWFFPRP
4. RRIRHRPPRLPRPRPRPRYLPRP
5. RRIRKRPPRLPRPRPRPDAGPRP
6. RRIRNRPPRLPRPRPRPWWLPRP
7. RRIRWRPPRLPRPRPRPYSHPRP

Result ::
[-0.00088, -0.0245, -0.197, -0.0229, -0.034, -0.106, -1.09]

Query :: Which shrunken log2 fold change value belongs to RRIRWRPPRLPRPRPRPWMHPRP ?
Result :: -0.0548
